assay: absorption spectrum (maximum absorption wavelength, molar extinction coefficient); type: physicochemical
Collected maximum absorption wavelength values appear next to each entry.

{"compound": "COCCOCCOCCOCCOCCOCCOCCOCCOCCOCCOCCOCCOCCN1C(=O)CN(C(=O)OCCNc2c3c4c5c(c(OC)c(=O)c6c(NCCOC(=O)N7CC(=O)N(CCOCCOCCOCCOCCOCCOCCOCCOCCOCCOCCOCCOCCOC)C(=O)C7)cc(OC)c(c7c(OC)cc(O)c(c2=O)c74)c65)C(C(C)=O)C(C)=C3)CC1=O (stereo not drawn) [HB-40d-PEG12]", "maximum absorption wavelength (nm)": 628}
{"compound": "COCCOCCOCCOCCOCCNC(=O)C1CCC(CNc2c(O)c3c(=O)cc(OC)c4c5c(OC)cc(=O)c6c(NCC7CCC(C(=O)NCCOCCOCCOCCOCCOC)CC7)c(OC)c7c(c(c2C=C(C)C7C(C)=O)c34)c65)CC1 (stereo not drawn) [HB-13b-NH-PEG4]", "maximum absorption wavelength (nm)": 622}
{"compound": "COCCOCCC(=O)OC1CCC(Nc2c(NC3CCC(OC(=O)CCOCCOC)CC3)c3c(=O)cc(OC)c4c5c(OC)cc(=O)c6c(O)c(OC)c7c(c(c2C=C(C)C7C(C)=O)c34)c65)CC1 (stereo not drawn) [HB-17a-PEG1]", "maximum absorption wavelength (nm)": 622}
